- targetDesc: UniProtKB P21554
- Sequence (P21554 whole entry): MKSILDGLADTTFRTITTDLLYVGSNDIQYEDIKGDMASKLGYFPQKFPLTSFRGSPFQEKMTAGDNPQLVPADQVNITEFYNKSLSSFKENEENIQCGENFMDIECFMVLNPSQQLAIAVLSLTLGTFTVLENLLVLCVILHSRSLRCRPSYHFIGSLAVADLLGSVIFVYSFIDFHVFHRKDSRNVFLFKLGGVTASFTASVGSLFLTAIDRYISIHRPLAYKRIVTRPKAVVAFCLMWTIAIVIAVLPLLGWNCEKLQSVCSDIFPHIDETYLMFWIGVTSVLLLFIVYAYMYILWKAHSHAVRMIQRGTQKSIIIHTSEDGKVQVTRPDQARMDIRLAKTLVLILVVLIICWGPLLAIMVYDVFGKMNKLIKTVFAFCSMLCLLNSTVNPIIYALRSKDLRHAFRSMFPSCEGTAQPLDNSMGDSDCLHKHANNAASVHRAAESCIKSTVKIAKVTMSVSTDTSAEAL
- protocolNotes: [35S]GTPγS binding assay, CB1 receptor agonistic activity
- Format: biochemical
- conditionSummary: EC50 value ratio of an (S)-enantiomer to the corresponding (R)-enantiomer
Recorded measurements of Human CB1 receptor S/R ratio, one per entry
Keep it simple and answer with nothing but the number.

Consider the reported Human CB1 receptor S/R ratio for these compounds:
CC(C)[C@@H](NC(=O)c1nn(Cc2ccccc2F)c2ccccc12)C(N)=O [(R)AB-FUBINACA 2-fluorobenzyl isomer] : 0.21
NC(=O)[C@@H](Cc1ccccc1)NC(=O)c1nn(CC2CCCCC2)c2ccccc12 : 0.0074
CCOC(=O)[C@H](NC(=O)c1nn(Cc2ccc(F)cc2)c2ccccc12)C(C)C [(R)EMB-FUBINACA] : 0.015
NC(=O)[C@H](Cc1ccccc1)NC(=O)c1nn(CC2CCCCC2)c2ccccc12 : 0.0074
CC(C)[C@H](NC(=O)c1nn(Cc2ccccc2F)c2ccccc12)C(N)=O [(S)AB-FUBINACA 2-fluorobenzyl isomer] : 0.21
CCOC(=O)[C@H](NC(=O)c1nn(CCCCCF)c2ccccc12)C(C)C [(R)5F-EMB-PINACA] : 0.14
CCOC(=O)[C@@H](NC(=O)c1nn(Cc2ccc(F)cc2)c2ccccc12)C(C)C [(S)EMB-FUBINACA] : 0.015

Query compound follows.
// lookup Human CB1 receptor S/R ratio for CCOC(=O)[C@@H](NC(=O)c1nn(CCCCCF)c2ccccc12)C(C)C [(S)5F-EMB-PINACA] 0.14

* * *

- targetDesc: UniProt P21554
- protocolNotes: [35S]GTPγS binding assay, CB1 receptor agonistic activity
endpointLabel: EC50 (µM)
Give the value in µM but do not write µM after it.

Consider the reported EC50 for these compounds:
NC(=O)[C@@H](Cc1ccccc1)NC(=O)c1nn(CC2CCCCC2)c2ccccc12 : 33.7
CCOC(=O)[C@@H](NC(=O)c1nn(CCCCCF)c2ccccc12)C(C)C [(S)5F-EMB-PINACA] : 0.00496

Query compound follows.
// lookup EC50 for `NC(=O)[C@H](Cc1ccccc1)NC(=O)c1nn(CC2CCCCC2)c2ccccc12` 0.251

* * *

- targetDesc: human CB2 receptor (Homo sapiens)
- Sequence (P34972 whole entry): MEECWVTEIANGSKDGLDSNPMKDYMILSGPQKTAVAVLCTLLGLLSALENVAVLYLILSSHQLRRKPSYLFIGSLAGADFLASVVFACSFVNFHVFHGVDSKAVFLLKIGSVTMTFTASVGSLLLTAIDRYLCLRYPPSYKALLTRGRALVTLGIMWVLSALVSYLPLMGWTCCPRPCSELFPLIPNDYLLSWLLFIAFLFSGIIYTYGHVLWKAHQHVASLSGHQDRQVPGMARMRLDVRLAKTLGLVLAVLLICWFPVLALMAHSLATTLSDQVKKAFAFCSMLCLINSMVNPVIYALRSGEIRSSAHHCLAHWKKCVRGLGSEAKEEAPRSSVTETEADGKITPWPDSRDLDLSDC
- protocolNotes: [35S]GTPγS binding assay, CB2 receptor agonistic activity
- conditionSummary: Human CB2 receptor EC50, [35S]GTPγS binding; tested 1 × 10^−11 to 1 × 10^−4 M
endpointLabel: EC50
Reply with the number, then its unit.

Consider the reported EC50 for these molecules:
CCOC(=O)[C@@H](NC(=O)c1nn(Cc2ccc(F)cc2)c2ccccc12)C(C)C [(S)EMB-FUBINACA] : 2.14 nM
COC(=O)[C@@H](NC(=O)c1cn(Cc2ccc(F)cc2)c2ccccc12)C(C)(C)C [(S)MDMB-FUBICA] : 1.07 nM
CCOC(=O)[C@H](NC(=O)c1nn(CCCCCF)c2ccccc12)C(C)C [(R)5F-EMB-PINACA] : 1.68 nM
NC(=O)[C@@H](Cc1ccccc1)NC(=O)c1nn(CC2CCCCC2)c2ccccc12 : 490 nM

// lookup EC50 for CCOC(=O)[C@@H](NC(=O)c1nn(CCCCCF)c2ccccc12)C(C)C [(S)5F-EMB-PINACA] 6.91 nM

// lookup EC50 for CCOC(=O)[C@H](NC(=O)c1nn(Cc2ccc(F)cc2)c2ccccc12)C(C)C [(R)EMB-FUBINACA] 0.863 nM

// lookup EC50 for `NC(=O)[C@H](Cc1ccccc1)NC(=O)c1nn(CC2CCCCC2)c2ccccc12` 8.09 nM

// lookup EC50 for CC(C)[C@@H](NC(=O)c1nn(Cc2ccccc2F)c2ccccc12)C(N)=O [(R)AB-FUBINACA 2-fluorobenzyl isomer] 0.627 nM

// lookup EC50 for COC(=O)[C@H](NC(=O)c1cn(Cc2ccc(F)cc2)c2ccccc12)C(C)(C)C [(R)MDMB-FUBICA] 3.1 nM

// lookup EC50 for CC(C)[C@H](NC(=O)c1nn(Cc2ccccc2F)c2ccccc12)C(N)=O [(S)AB-FUBINACA 2-fluorobenzyl isomer] 2.44 nM
